Target: UniProt O43613
Sequence (O43613 whole entry): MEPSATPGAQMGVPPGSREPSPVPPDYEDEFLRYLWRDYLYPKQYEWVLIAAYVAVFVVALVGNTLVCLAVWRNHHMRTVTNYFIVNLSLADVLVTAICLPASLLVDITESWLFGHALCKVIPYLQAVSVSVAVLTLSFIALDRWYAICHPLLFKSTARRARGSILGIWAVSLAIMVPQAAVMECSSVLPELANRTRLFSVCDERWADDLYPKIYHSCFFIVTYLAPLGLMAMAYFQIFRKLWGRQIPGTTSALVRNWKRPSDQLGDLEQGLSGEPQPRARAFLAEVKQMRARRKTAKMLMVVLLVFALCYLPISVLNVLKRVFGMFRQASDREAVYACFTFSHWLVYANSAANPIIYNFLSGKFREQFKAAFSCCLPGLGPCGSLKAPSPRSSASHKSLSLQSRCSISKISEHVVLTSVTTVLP
Assay: Human orexin 1 receptor radioligand binding ([3H]-SB674042 competition)
Conditions: CHO cells stably expressing human orexin 1 receptor; [3H]-SB674042 4 nM final; read-out: OR-1 Ki
pKi: −log10 of the molar value.
Measure name: pKi

Previously resolved entries follow.
O=C(c1ccccc1-c1ccco1)N1CC[C@H]2CN(c3cnc4ccccc4n3)[C@H]2C1	7.74
COc1ccc(-n2nccn2)c(C(=O)N2CC[C@H]3CN(c4cc(C)cc(C)n4)[C@H]3C2)c1	6.47

[1] Cc1cc(C)nc(N2C[C@@H]3CCN(C(=O)c4cc(F)ccc4-c4ccn[nH]4)C[C@@H]32)n1
[2] Cc1cc(C)nc(N2C[C@@H]3CCN(C(=O)c4cc(F)ccc4-c4ccn(C)n4)C[C@@H]32)n1
Compare 1 and 2 and name the one whose reported pKi is smaller. Identify your pick by its label.
2

[1] O=C(c1cc(F)ccc1-n1nccn1)N1CC[C@H]2CN(c3cccc(C(F)(F)F)n3)[C@H]2C1
[2] COc1cccc(OC)c1C(=O)N1CCC2CN(c3cnc4ccccc4n3)C2C1 (stereo not drawn)
[3] Cc1cc(N2C[C@@H]3CCN(C(=O)c4ccc(C)nc4-n4ccnn4)C[C@@H]32)nc(C(F)(F)F)n1
[4] Cc1nccnc1N1C[C@@H]2CCN(C(=O)c3c(F)cccc3-n3nccn3)C[C@@H]21
Endpoint returns the given molecules ordered by ascending pKi. In your reply, arrange the labels in the requested order.
4, 3, 2, 1
(4: 5.00, 3: 5.27, 2: 6.18, 1: 6.58)

[P] Cc1cc(C)nc(N2C[C@@H]3CCN(C(=O)c4c(F)cccc4-c4ncccn4)C[C@@H]32)n1
[Q] Cc1cc(C)nc(N2C[C@@H]3CCN(C(=O)c4ccc(C)nc4-n4ccnn4)C[C@@H]32)n1
[R] Cc1cncc(N2C[C@@H]3CCN(C(=O)c4cc(F)ccc4-n4nccn4)C[C@@H]32)n1
Endpoint returns the given molecules ordered by ascending pKi. In your reply, arrange the labels in the requested order.
Q, R, P
(Q: 5.09, R: 5.30, P: 6.33)

All figures here come from patent US8680275B2.
